biological target: human CGT (Homo sapiens); assay: Assay 1: CGT Enzymatic Assay (RapidFire/MS/MS, 0.01% Tween 80); type: biochemical; settings: Table 1, Compounds of Formula (I) and Formula (II); CGT enzymatic assay; read-out: IC50
Sequence (Q16880 21-541): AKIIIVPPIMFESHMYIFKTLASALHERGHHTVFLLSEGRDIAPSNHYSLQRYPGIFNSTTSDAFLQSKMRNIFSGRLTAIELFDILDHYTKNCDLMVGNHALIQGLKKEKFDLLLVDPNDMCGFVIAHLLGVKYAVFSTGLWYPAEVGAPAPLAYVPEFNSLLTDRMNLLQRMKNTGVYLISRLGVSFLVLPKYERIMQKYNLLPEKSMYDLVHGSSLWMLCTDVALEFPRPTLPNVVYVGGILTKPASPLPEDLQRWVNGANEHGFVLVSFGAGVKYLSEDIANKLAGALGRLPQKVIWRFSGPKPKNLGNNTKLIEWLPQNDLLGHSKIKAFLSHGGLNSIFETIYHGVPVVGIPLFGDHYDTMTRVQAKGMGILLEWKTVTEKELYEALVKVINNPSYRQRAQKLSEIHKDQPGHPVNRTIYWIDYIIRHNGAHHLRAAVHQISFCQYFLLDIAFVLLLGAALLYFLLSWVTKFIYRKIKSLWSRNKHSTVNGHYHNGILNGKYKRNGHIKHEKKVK
OBSERVATION_TYPE: IC50

CCCc1c(-c2cccc(Cl)c2)n(-c2ccc(Br)cc2)c(=O)n1-c1ccc(Br)cc1 ... < 1 µM

Below are 7 molecules. Give each one its IC50.
1. C[C@@]1(C(F)(F)F)N(c2ccc(Cl)cc2)C(=O)N(c2ccc(Cl)cc2)C1(O)c1cccc(OC(F)(F)F)c1 (single isomer, unassigned)
2. C[C@H]1N(c2ccc(Cl)cc2)C(=O)N(c2ccc(Cl)cc2)C1(O)c1cccc(Br)c1 (stereo partly drawn)
3. COc1cccc(C2(O)[C@H](C)N(c3ccc(Br)cc3)C(=O)N2c2ccc(Br)cc2)c1 (stereo partly drawn)
4. N#Cc1cccc(C2(O)[C@H](C3CCC3)N(c3ccc(Cl)cc3)C(=O)N2c2ccc(Cl)cc2)c1 (stereo partly drawn)
5. COc1ccc(C2(O)C(=O)N(c3ccc(Br)cc3)C(=O)N2c2ccc(Br)cc2)nc1 (stereo not drawn)
6. N#Cc1ccc(C2(O)CN(c3ccc(Br)cc3)C(=O)N2c2ccc(Br)cc2)cc1 (stereo not drawn)
7. N#Cc1cccc(C2(O)N(c3ccc(Cl)cc3)C(=O)N(c3ccc(Cl)cc3)C23COC3)c1 (stereo not drawn)

["< 1 µM", "< 1 µM", "< 1 µM", "< 1 µM", "50 to 100 µM", "> 50 µM", "< 1 µM"]
